# subject of test: His-tagged kinase domain of CSF-1R (amino acids 568-912) (Homo sapiens, UniProt P07333)
# Construct: The His-tagged kinase domain of CSF-1R (i.e., amino acids 568-912, GeneBank ID NM_005211); His; made in house; host or cells: baculovirus infected SF+Express insect cells
# Sequence (P07333 568-912): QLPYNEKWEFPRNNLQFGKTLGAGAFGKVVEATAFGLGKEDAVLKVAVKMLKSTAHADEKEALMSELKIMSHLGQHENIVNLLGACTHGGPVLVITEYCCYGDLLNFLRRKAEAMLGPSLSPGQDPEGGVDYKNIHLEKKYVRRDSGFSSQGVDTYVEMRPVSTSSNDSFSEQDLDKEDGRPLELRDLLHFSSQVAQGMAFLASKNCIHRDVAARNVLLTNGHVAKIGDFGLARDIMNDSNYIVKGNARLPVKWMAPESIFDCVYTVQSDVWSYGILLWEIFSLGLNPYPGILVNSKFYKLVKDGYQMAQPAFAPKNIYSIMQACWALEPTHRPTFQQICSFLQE
# measurement protocol: Assay 1: CSF-1R in vitro AlphaScreen assay
# Format: biochemical
# experimental conditions: phosphorylation of biotinylated pEY substrate; 0.57 nM CSF-1R, 90 μM ATP
Decide using IC50 alone. Strictly below 7 nM: 1. Equal to or above 7 nM: 0.

Example entries and their recorded answers appear below.
CCOc1cc2ncc(C(N)=O)c(Nc3cccc(Cl)c3F)c2cc1C1CCN(C)CC1 :: 1
CCOc1cc2ncc(C(N)=O)c(Nc3cccc(Cl)c3Cl)c2cc1C1CCN(C)CC1 :: 1
COc1cc2ncc(C(N)=O)c(Nc3ccc(F)cc3F)c2cc1C1CCN(C)CC1 :: 0
CCOc1cc2ncc(C(N)=O)c(Nc3ccc(C)cc3F)c2cc1C1CCN(C(C)C)CC1 :: 1
CCOc1cc2ncc(C(N)=O)c(Nc3ccc(F)cc3F)c2cc1-c1c(C)noc1C :: 0
CCOc1cc2ncc(C(N)=O)c(Nc3ccc(C)cc3F)c2cc1C1CCN(C)CC1 :: 1
CCOc1cc2ncc(C(N)=O)c(Nc3ccc(F)cc3F)c2cc1C1=CCN(C(C)=O)CC1 :: 0
CCOc1cc2ncc(C(N)=O)c(Nc3ccc(F)cc3F)c2cc1-c1cnn(CC(C)C)c1 :: 0

Item `CCOc1cc2ncc(C(N)=O)c(Nc3ccc(F)cc3F)c2cc1-c1ccc(OC)nc1` : IC50 beneath 7 nM, strictly?
0

Item `CCOc1cc2ncc(C(N)=O)c(Nc3ccc(Cl)c(Cl)c3)c2cc1CCCO` : IC50 beneath 7 nM, strictly?
0

Item `CCOc1cc2ncc(C(N)=O)c(Nc3ccc(F)cc3F)c2cc1CCCO` : IC50 beneath 7 nM, strictly?
1
